- assayInfo: label from the status in PepcDB records;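 note: failed if final PepcDB status was selected cloned or expressed and not failed if soluble or beyond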
propertyMeasured: protein production

MVIINTAAYHFVSITQPQTLADQIRAHGEIAGLKGTVLIANEGINLFLAGEKEAINAFYAWLCADVRFAALHVKYSVSAYKPFARFKVKVRPEIISFRRGDISPLQVRAPGVSAHTLRDWLRRGCDDNGRRLVMLDARNQQEIAYGTFSGAMTLPITKFTGFPGALAHYRDLLSDATVVSFCTGGIRCEKAVLWMRADGMDNVLQLEGGILGYFEQVGGEGYDGRCFVFDKRVALDPQLRPLYDMRVVASFARSEIS :: failed
MTTEIKKLDPDTAIDIAYDIFLEMAGENLDPADILLFNLQFEERGGVEFVETADDWEEEIGVLIDPEEYAEVWVGLVNEQDEMDDVFAKFLISHREEDREFHVIWKK :: not failed
MQSPEKIDPTWEDSVIDSFISFVRSYDGDFTCIYKLADTVSDEYSLQKIIDFLSSTPQGKQAFQKRPQLGVVDLPKLHQLPTDTLGYVYADQMLQNNLQPLQSHEIDNDYQFFKTHITETHDLWHIVTGADTSILGEIQLEAFYVSQLYASRFWLALLAKNLLKAVIYDIELSTPYMDAISTGWVMAKQAKPLFGLEWNLLWEKPLADVRTSLNIILPVNLEHHHHHH :: not failed
SFKPVMQKFLHDHVDLQVSALYALQVHCYNSNFPKGMLLRFFVHFYDMEIIEEEAFLAWKEDITQEFPGKGKALFQVNQ :: failed

###

- assayInfo: label from the status in PepcDB records
propertyMeasured: protein production

Here's what some known entries look like.
MKNLIFIATTFITTISLTNIAQAANQEHIRQLLATKQCQNCDLSGAGLVMADLTGANLSGANLAGANLSRANLSGADLRGANLSGAGLFGVNLSEAKLGGANLAGADLRSTFLSNAEFTGAYLQGTNFQGALGIPLQIATPDEFYALGVAEAQKGNQQQAINYFNQAIASKPEYAGAYLARGIARYQLFDRQGAAQDAQTAEKLFTSQDNATGIQTAQAFIKELQTPYTEKLSAGKPSFFDFLGSLGSVLLQFLPF :: failed
MSEDRSSNGQKSWLGKLTQAFVHEPKNRQELLELLREAHQNKLLDSEALAIVEGAIQVADLQVRDIMVPRSQMISIKATQTPREFLPAVIDAAHSRYPVIGESHDDVLGVLLAKDLLPLILKADGDSDDVKKLLRPATFVPESKRLNVLLREFRANHNHMAIVIDEYGGVAGLVTIEDVLEQIVGDIEDEHDVEEDSYIKPLPSGDFLVKALTPVENFNEFFDSAFSDDEFDTVGGLVMNAFGHLPKRNEITEIGAYRFRILSADSRRIHLLRVTPISRP :: failed
MRAFIAIDVSESVRDALVRAQDYIGSKEAKIKFVERENFHITLKFLGEITEEQAEEIKKILEKIAKKYKKHEVNVRGIGVFPNPNYVRVIWAGVENDEIIKKIAKEIDDELAKLGFKKEGNFVAHITLGRVKFVKDKLGLAMKLKELANEDFGSFIVEAIELKKSTLTPKGPIYETLARFELSE :: not failed
MNQQEVAADYLKYFDDMLAKAADLTKDIKDADKKTVVYGNVSKFSQPHVIAEWWIDKAGGISVTSEAMTKANKESLTYTLEDLLKWNPDVMFVASAAEKKEVLADARLGEITAVKNGAIYIVPRIAHVWGNRTTEQPLTIMWAMNKLYPEIVTLEHHHHHH :: not failed
MSDVEDVPETQLEIDVSDGAGLEDEDDDDMEQITAQKVLEIIETAWINEMCAPEILPSQTDMLELMVSQVAHMEEQMRDLDKNDFRAVVHSMELERVRYIMASYLRCRLQKIETFTQHILNQEESREPDDKRLSPEETKFAQEFASNVDEYFHKVATQYMPNQQRGEAEQRIVTPNLMSHVFLKANVAVPAVIVGVDDEEVDMAAGSQHIIPYQLVADLIQNNQAQLI :: failed

Lab book: protein production of MIKNDGKMMRVRIAKERSDLCDLTAAAIKATYNTRNPCEVERCIDVLNHLKSLSLSVKDIRLSESIVKLETLRSHRNPRIRKEAQALFHSWLKTFYAHGSDNSFTAALTKDRLKMKKHVLKMCSELKKKEEPGTMARQVTAFSVLKNKEDERSQTTVEAVESKTTIKLSELNRKEDQRSLTRETEKNKARNSFLALKQKEDHRSETCVEKYFKKETKTNLKQLNMKTRRVSLEDVTTKKPHEDGSLIKKTKTEKELKKKKVDEMVKLFEAAKKAADVANAKGVLSGKPEVSRCIDALSLLMKINITPKPKEPRRMMDKLEGLTKHKDRKICHVASALLHLWRQRIREQERKKSVTKASSKTRKLSYVKIIWLEQIKVSCGFKRF noted as failed

Lab book: protein production of MAARAWVVAVVGFFVMWLMFQVVGWVIGVIWGVWQQLDQATAGTMIEPPQDWKNMLNSLYSNMLGIWNYLPVVVLLSAVVYIIIESLRRRPEEYYV noted as failed

Lab book: protein production of MKNYTLISPCFFGMEKMLAREITNLGYEIIKTEDGRITYKTDEFGIAKSNMWLRCAERVHLKIAEFEAKSFDELFENTKRINWSRYIPYGAQFPISKASSIKSKLYSTPDVQAIVKKAIVESLKKSYLEDGLLKEDKEKYPIFVFIHKDKVTISIDTTGDALHKRGYREKANKAPIRETLAAGLIYLTPWKAGRVLVDPMCGSGTILIEAAMIGINMAPGLNREFISEKWRTLDKKIWWDVRKDAFNKIDNESKFKIYGYDIDEESIDIARENAEIAGVDEYIEFNVGDATQFKSEDEFGFIITNPPYGERLEDKDSVKQLYKELGYAFRKLKNWSYYLITSYEDFEYEFGQKADKKRKLYNGMLKTNFFQYPGPKPPRNNK noted as not failed

Lab book: protein production of MMSGLVYRKRRRQNMTALERSWFEEAQQSMHGWDFSHLAGRWQTADLPWDYAALVREHLSADDRWLDIDTGGGELMGRFNPQPALTAVTEGWQPNIELLKQTVVKKGITLYPDAAEQLTAVPNSTFDIVTNSHGAMPVKRIAEVLKPGGRFVTQQVGATNNYALSRFFDEHYETAYPDNQLLTVMAQMQAAGFEILRAEQAYAALSFTDVGAIVYYATVIPWEFPHFDVARMLPKLHQLQSLLAINGRVTTFEDRFMIIARKLARRD noted as failed

Lab book: protein production of MGNYMTYIVGLTGGIGSGKTTIANLFTDLGVPLVDADVVAREVVAKDSPLLSKIVEHFGAQILTEQGELNRAALRERVFNHDEDKLWLNNLLHPAIRERMKQKLAEQTAPYTLFVVPLLIENKLTALCDRILVVDVSPQTQLARSAQRDNNNFEQIQRIMNSQVSQQERLKWADDVINNDAELAQNLPHLQQKVLELHQFYLQQAENKNA noted as not failed

Lab book: protein production of MVQSLAKQVIHQAVEVNAQDIYIIPKGDCYELYMRIDDERRFIDVFEFNRMASLISHFKFVAGMNVGEKRRSQLGSCDYELSEGRLVSLRLSSVGDYRGQESLVIRILY noted as failed

Lab book: protein production of MTQRKVYAPVPVMVAGIAIIATRFLGILLLVWELGLSDLSGWIGSNAEAWDSTLVLLLSLIIVGVEIRCGFAVLAGVNWGRWGYIACQGVVVCYLLLASLSEFMPAIFHISGENHAAVLHQLLMQKIPDLLVIVLLFLPRRSKRFFLRQK noted as failed

Lab book: protein production of MLITISDIAWGIALSIWVAIVVLYISKLISKKFGAYVTRKAIHMLGGGIVAVLSPFVFNSPLVPIITSYLIMAYLITIRVLRKEMSWFMDKENLGEVFFAFSFGTVLLVMFILDPNYWTSTDLIYVAVLPLIFMSFGDGITGIIRNFVYKRRVKGLWGSMGMLIFCATVGYFVLNIPGLIAGILATVAELLPYIDDNISVPFLSFLFLYLFVRVL noted as failed
